- System name: T1, human ErbB2 ECD-myc/His fusion protein (human, UniProt P04626 23-652)
- T1 construct: Made in-house in 293T cells; also called hErbB2(ECD)/cMyc-His; huErbB2 (ECD)/c-myc-His; not shown: c-myc/His tag of the pSecTag2Hygro vector
- Experiment summary: limited antigen ELISA, 31 ng/ml ErbB2 ECD-myc/His coated, supernatant 1:25
# LA at 31 ng/ml (OD) annotations

Binder	LA at 31 ng/ml (OD) / OD 450 nm
monoclonal antibody 1.39 (antibody, V domains shown, Fully human IgG (gamma/kappa) from a XenoMouse XM3B-3 hybridoma; constant regions not tied to it; also called 1.39.1; 1.39.2) VH: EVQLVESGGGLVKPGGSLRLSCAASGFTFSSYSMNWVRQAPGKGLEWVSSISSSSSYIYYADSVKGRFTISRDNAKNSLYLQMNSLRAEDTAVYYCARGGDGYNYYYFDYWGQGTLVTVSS VL: DIVMTQSPDSLAVSLGERATITCKSSQSVFFRSNNKNCLAWYQQRPGQPPNLLIYWASSRESGVPDRFSGSGSGTDFALTISSLQTEDVAVYYCQQYFGSPFTFGPGTKVDIK	2.57
monoclonal antibody 1.18.1 (antibody, V domains shown, Fully human IgG (gamma/kappa) from a XenoMouse XM3B-3 hybridoma; constant regions not tied to it) VH: EVQLVESGGGLVKPGGSLRLSCAASGFTFSSYSMNWVRQAPGKGLEWVSSISSSSSYIYYADSVKGRFTISRDNAKNSLYLQMNSLSAEDTAVYSCARGGDGYNYYYFDYWGQGTLVTVSS VL: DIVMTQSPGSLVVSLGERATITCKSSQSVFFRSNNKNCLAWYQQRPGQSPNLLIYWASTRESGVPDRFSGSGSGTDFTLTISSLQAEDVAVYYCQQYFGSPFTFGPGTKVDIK	3.03
monoclonal antibody 1.14.1 (antibody, V domains shown, Fully human IgG (gamma/kappa) from a XenoMouse XM3B-3 hybridoma; constant regions not tied to it) VH: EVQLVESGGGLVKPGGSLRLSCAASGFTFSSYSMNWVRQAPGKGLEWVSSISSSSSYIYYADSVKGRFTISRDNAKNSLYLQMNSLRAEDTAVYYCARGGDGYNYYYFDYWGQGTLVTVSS VL: DIVMTQSPDSLAVSLGERATITCKSSQSVFFRSNNKNCLTWYQQRPGQPPNLLIYWASTRESGVPDRFSGSGSGTDFTLTINNLQAEDVAVYYCQQYFGSPFTFGPGTKVDIK	3.99
